Molecular target: Human immunodeficiency virus type 1 protease (Human immunodeficiency virus 1, UniProt Q72874)
Each entry below carries its recorded Ki.

CCC(C)[C@H](NC(=O)[C@H](C(C)C)[C@@H](O)[C@H](O)[C@H](CC1CCCCC1)NC(=O)c1ncccc1OCCOc1ccccc1)C(=O)NCc1nc2ccccc2[nH]1 (stereo partly drawn) : > 200 nM
CC(C)[C@@H](C(=O)N[C@H]1c2ccccc2CC1O)[C@@H](O)[C@H](O)[C@H](CC1CCCCC1)NC(=O)c1ncccc1OCCOc1ccccc1 (stereo partly drawn) : > 200 nM

Recorded Ki (molecule CC(C)[C@@H](C(=O)N[C@H]1c2ccccc2CC1O)[C@@H](O)[C@H](O)[C@H](CC1CCCCC1)NC(=O)CCOCCOc1ccccc1 (stereo partly drawn) ): > 200 nM

Sourced from ChEMBL document CHEMBL1127016
